Recorded values, source patent US11912693B2.

inhibition in vivo at 3 mg/kg by entry:
Tested on: paclitaxel induced peripheral neuropathy
PROCEDURE SUMMARY: Reversal of allodynia induced by paclitaxel in mice (s.c. or p.o., von Frey frequency method)
Type: in vivo, c57bl/6 mice
CONDITION LABEL: Mus musculus, po, 1 h, 3 mg/kg p.o., tested 60 min after dosing, read-out: Screen @ 3 mg/kg po (% MPE)

Known inhibition in vivo at 3 mg/kg results, listed for orientation:
• CC(C)Nc1ccc(-c2nc(-c3ccc4[nH]c(=O)[nH]c4c3)no2)cc1C#N = > 50%
• CC(C)Nc1ccc(-c2nnc(-c3ccc4cnccc4c3)o2)cc1C#N = < 50%
• CCC1(CC)CC(=O)c2cc(-c3nc(-c4ccnc(N)c4)no3)ccc2O1 = < 50%

Prompt: For the compound shown here, Cc1ccccc1-c1nc(-c2ccc3c(c2)nnn3C(C)C)no1 , give the reported inhibition in vivo at 3 mg/kg.
Completion: > 50%

Prompt: Quick one: inhibition in vivo at 3 mg/kg of COc1cnccc1-c1nc(-c2ccc3c(c2)nnn3C(C)C)no1 ?
Completion: > 50%

---

ASSAYED SYSTEM: human sphingosine-1-phosphate receptor 1 (S1P1) (Homo sapiens (Human), UniProt P21453)
PROCEDURE SUMMARY: β-Arrestin2 recruitment assay (PathHunter), S1P1 CHO-K1 cells
Assay type: cell-based
CONDITION LABEL: β-arrestin2 recruitment, S1P1 CHO-K1 cells
Procedure: Stable clonal Chinese hamster ovary K1 (CHO-K1) cells co-expressing EA-β-arrestin2 and the human sphingosine-1-phosphate receptor 1 (NM_001400, S1P1) with a C-terminal Prolink™ tag were purchased from DiscoverX corporation (Cat #: 93-0207C2). […] Agonist-promoted β-arrestin2 recruitment to the sphingosine-1-phosphate 1 receptor was determined using the β-arrestin PathHunter®) Detection kit (DiscoverX Corporation, Cat #: 93-0001). […]
Sequence (P21453 whole entry, looked up): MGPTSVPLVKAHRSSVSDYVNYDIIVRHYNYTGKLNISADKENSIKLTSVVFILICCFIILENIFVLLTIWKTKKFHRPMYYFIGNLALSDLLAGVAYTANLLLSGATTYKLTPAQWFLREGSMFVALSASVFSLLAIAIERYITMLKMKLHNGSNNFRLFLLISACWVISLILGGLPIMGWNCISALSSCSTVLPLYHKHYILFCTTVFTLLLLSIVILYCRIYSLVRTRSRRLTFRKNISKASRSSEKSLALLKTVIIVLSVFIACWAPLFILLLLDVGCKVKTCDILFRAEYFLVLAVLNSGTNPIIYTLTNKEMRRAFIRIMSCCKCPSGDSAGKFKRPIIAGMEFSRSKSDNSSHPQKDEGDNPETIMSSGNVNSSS
Sequence (P32121 whole entry partner, looked up): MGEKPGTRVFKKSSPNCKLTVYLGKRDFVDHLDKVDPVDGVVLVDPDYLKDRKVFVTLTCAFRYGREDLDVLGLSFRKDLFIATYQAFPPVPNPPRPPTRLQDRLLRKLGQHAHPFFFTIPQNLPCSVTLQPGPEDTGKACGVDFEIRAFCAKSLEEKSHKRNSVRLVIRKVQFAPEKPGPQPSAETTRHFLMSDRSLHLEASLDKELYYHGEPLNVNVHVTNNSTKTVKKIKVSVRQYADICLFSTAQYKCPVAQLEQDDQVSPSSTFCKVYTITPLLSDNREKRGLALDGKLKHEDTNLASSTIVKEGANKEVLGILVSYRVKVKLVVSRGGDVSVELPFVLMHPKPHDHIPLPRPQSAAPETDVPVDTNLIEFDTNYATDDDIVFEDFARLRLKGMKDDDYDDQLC
MEASURED ATTRIBUTE: hS1P1 B-arrestin2 pEC50

Please review the entries below; each comes with its answer.
- CCC1(CC)CC(=O)c2cc(-c3nc(-c4ccc(N)cc4)no3)ccc2O1: >5
- CCC1(CC)CC(=O)c2cc(-c3nc(-c4ccc[nH]4)no3)ccc2O1: <5
- Cn1ccnc1-c1noc(-c2ccc3c(c2)nnn3CC(C)(C)O)n1: <5

Prompt: Checklist item: hS1P1 B-arrestin2 pEC50 tested on human sphingosine-1-phosphate receptor 1 (S1P1) (Homo sapiens (Human), UniProt P21453), entry N#Cc1cc(-c2nnc(-c3ccc4[nH]ncc4c3)o2)ccc1NCC(F)F , value?
Completion: >5

Prompt: Report hS1P1 B-arrestin2 pEC50 for Clc1ncccc1-c1noc(-c2ccc3c(c2)nnn3C2CCCC2)n1 tested on human sphingosine-1-phosphate receptor 1 (S1P1) (Homo sapiens (Human), UniProt P21453).
Completion: >5

Prompt: Which hS1P1 B-arrestin2 pEC50 is reported with human sphingosine-1-phosphate receptor 1 (S1P1) (Homo sapiens (Human), UniProt P21453) for this entry: O=C1CC2(CCCC2)Oc2ccc(-c3nc(-c4cccnc4)no3)cc21 ?
Completion: >5

Prompt: Form: Entry = COc1ccc2oc(-c3ccc4c(c3)nnn4CC(C)C)nc2c1 | System = human sphingosine-1-phosphate receptor 1 (S1P1) (Homo sapiens (Human), UniProt P21453) | hS1P1 B-arrestin2 pEC50 = ____
Completion: >5

Prompt: Give human sphingosine-1-phosphate receptor 1 (S1P1) (Homo sapiens (Human), UniProt P21453) hS1P1 B-arrestin2 pEC50 for Cc1ccc(-c2nc(-c3ccc4c(c3)nnn4C(C)C)no2)c(C)c1
Completion: <5

Prompt: # query: hS1P1 B-arrestin2 pEC50 | item CCC1(CC)CC(=O)c2cc(-c3nc(-c4ccc(C)cc4)no3)ccc2O1 | system: human sphingosine-1-phosphate receptor 1 (S1P1) (Homo sapiens (Human), UniProt P21453)
Completion: <5

---

ASSAYED SYSTEM: UniProt:P21453
PROCEDURE SUMMARY: β-Arrestin2 recruitment assay (PathHunter), S1P1 CHO-K1 cells
Format: cell-based
CONDITION LABEL: β-arrestin2 recruitment, S1P1 CHO-K1 cells
MEASURED ATTRIBUTE: hS1P1 B-arrestin2 pEC50

// worked examples, hS1P1 B-arrestin2 pEC50 included
- Cc1ccsc1-c1noc(-c2ccc3c(c2)nnn3CC2CC2)n1: <5
- CC(C)(CO)Cn1nnc2cc(-c3noc(-c4ccncc4C(F)(F)F)n3)ccc21: <5
- CN1C(=O)Cc2cc(-c3nc(-c4cccnc4)no3)ccc21: <5
- CCC1(CC)CC(=O)c2cc(-c3nc(-c4cccnc4OC)no3)ccc2O1: >5
- CC(C)n1nnc2cc(-c3nc(-c4ccccc4OC(F)(F)F)no3)ccc21: >5
- COc1cnccc1-c1nc(-c2ccc3c(c2)nnn3C(C)C)no1: >5
- CCC1(CC)CC(=O)c2cc(-c3nc(-c4ccc(OC)nc4)no3)ccc2O1: <5
- CC(C)(CO)Cn1nnc2cc(-c3noc(-c4ccccc4Cl)n3)ccc21: <5

Consider now this further compound.
Prompt: Could you share which hS1P1 B-arrestin2 pEC50 value was measured for N#Cc1cc(-c2nnc(-c3ccc4[nH]cnc4c3)o2)ccc1NC1CC1 ?
Completion: >5

---

ASSAYED SYSTEM: human sphingosine-1-phosphate receptor 1 (S1P1) (Homo sapiens (Human), UniProt P21453)
PROCEDURE SUMMARY: Inhibition of cAMP production (HTRF cAMP HiRange), S1P1 CHO-K1 cells
Format: cell-based
CONDITION LABEL: inhibition of cAMP production, S1P1 CHO-K1 cells
Sequence (P21453 whole entry, looked up): as the sequence (P21453 whole entry, looked up) above
MEASURED ATTRIBUTE: hS1P1 cAMP pEC50

Reference set (3 entries):
* CCC1(CC)CC(=O)c2cc(-c3nc(-c4ccc(C)cc4)no3)ccc2O1 [Compound 269] | <6.5
* CC(C)Oc1ccccc1-c1noc(-c2ccc3c(cnn3C(C)C)c2)n1 [Compound 334] | <6.5
* Brc1ccccc1-c1nc(-c2ccc3c(c2)nnn3Cc2ccncc2)no1 [Compound 48] | <6.5

Prompt: Any idea what hS1P1 cAMP pEC50 was measured for COc1cccc(-c2nc(-c3ccc4c(ccn4C(C)C)c3)ns2)c1 [Compound 366] ?
Completion: <6.5

Prompt: Suppose we examine the molecule CC(C)Nc1ccc(-c2ncc(-c3ccc4c(c3)nnn4C(C)C)cn2)cc1C#N [Compound 596] ; what hS1P1 cAMP pEC50 value has been reported?
Completion: >6.5

Prompt: Look up hS1P1 cAMP pEC50: COc1cccnc1-c1noc(-c2ccc3c(c2)nnn3C2CCCC2)n1 [Compound 203]
Completion: <6.5

---

ASSAYED SYSTEM: human sphingosine-1-phosphate receptor 1 (S1P1) (Homo sapiens (Human), UniProt P21453)
PROCEDURE SUMMARY: β-Arrestin2 recruitment assay (PathHunter), S1P1 CHO-K1 cells
Type: cell-based
CONDITION LABEL: β-arrestin2 recruitment, S1P1 CHO-K1 cells
MEASURED ATTRIBUTE: hS1P1 B-arrestin2 pEC50

Consider the worked cases shown below.
- CNc1ccccc1-c1coc(-c2ccc3c(c2)nnn3C(C)C)n1: <5
- C=CCNc1ccc(-c2nc(-c3ccc4[nH]c(=O)oc4c3)no2)cc1C#N: >5
- N#Cc1cc(-c2nnc(-c3ccc4[nH]c(=O)oc4c3)o2)ccc1NCC(F)F: >5

Alright, here's another compound for you.
Prompt: I am curious: what hS1P1 B-arrestin2 pEC50 value has been reported for COc1ccccc1-c1nnc(-c2ccc3c(c2)CCC(=O)N3)o1 ?
Completion: <5

---

ASSAYED SYSTEM: human sphingosine-1-phosphate receptor 1 (S1P1) (Homo sapiens (Human))
PROCEDURE SUMMARY: β-Arrestin2 recruitment assay (PathHunter), S1P1 CHO-K1 cells
Assay type: cell-based
CONDITION LABEL: β-arrestin2 recruitment, S1P1 CHO-K1 cells
MEASURED ATTRIBUTE: hS1P1 B-arrestin2 pEC50

Consider the reported hS1P1 B-arrestin2 pEC50 for these compounds:
* CCC1(CC)CC(=O)c2cc(-c3nnc(-c4cccnc4)s3)ccc2O1 | <5
* c1ccc(-c2noc(-c3ccc4c(c3)nnn4C3CCCC3)n2)cc1 | <5
* COc1ccc(-c2noc(-c3ccc4c(c3)nnn4C(C)C)n2)cc1OC | <5
* CC(C)n1ccc2cc(-c3nc(-c4ccccc4Br)no3)ccc21 | >5
* Cc1ccccc1-c1noc(-c2ccc3c(c2)nnn3C2CCC2)n1 | >5

Prompt: Which hS1P1 B-arrestin2 pEC50 value belongs to Cc1ccccc1-c1csc(-c2cnc3c(ccn3C(C)C)c2)n1 ?
Completion: <5

Prompt: Can you look up the measured hS1P1 B-arrestin2 pEC50 of CC(C)C(c1ccccc1)c1noc(-c2ccc3c(c2)nnn3C(C)C)n1 (stereo not drawn) for me?
Completion: <5

Prompt: Which hS1P1 B-arrestin2 pEC50 is listed for CCC1(CC)CC(=O)c2cc(-c3nnc(-c4ccc5c(c4)nnn5C(C)C)s3)ccc2O1 ?
Completion: >5
